# PROTOCOL_DETAILS: Validation screen for small molecules that induce DNA re-replication in MCF 10A normal breast cells (AID 463097); note: nearly all actives have a fitted effect of over 60% in size
# EXPERIMENTAL_CONDITIONS: MCF 10A cells, DNA re-replication phenotype imaging; series mostly up to 46.1 µM
Records with an inconclusive call do not appear. Calls of active or inactive are those of the source. Calls come from the whole dose curve; as a rule, active = well fitted activation curve with a large enough effect; inconclusive = small, poorly fitted or top-dose-only effect; inactive = flat fitted curve, though single readings scatter.
The reply should name one outcome from class 1 for active, class 0 for inactive

[Q] Please share the test call associated with COc1ccc(CCN(C)CCCC(C#N)(c2ccc(OC)c(OC)c2)C(C)C)cc1OC (configuration not stated) .
[A] class 0

[Q] Returns: the outcome recorded for O=C(c1ccc(F)cc1)C1CCN(CCn2c(=O)[nH]c3ccccc3c2=O)CC1 in this assay.
[A] class 0

[Q] Called result for CCOC(=O)c1ncn2c1CN(C)C(=O)c1cc(F)ccc1-2
[A] class 0

[Q] What call does the record list for CN(C)CCC=C1c2ccccc2C=Cc2ccccc21 ?
[A] class 0

[Q] Dear colleague, could you share the recorded outcome for CCCNCC(O)COc1ccccc1C(=O)CCc1ccccc1 (configuration not stated) when you have a moment?
[A] class 0

[Q] Please state the recorded outcome for this compound: O=C(Nc1ccc([N+](=O)[O-])cc1Cl)c1cc(Cl)ccc1O
[A] class 1

[Q] Please share the test call associated with CC1COc2c(N3CCN(C)CC3)c(F)cc3c(=O)c(C(=O)O)cn1c23 (configuration not stated) .
[A] class 0

[Q] What outcome does the record of this test show for Clc1ccc2c(c1)C(N1CCNCC1)=Nc1ccccc1O2 ?
[A] class 0

[Q] Outcome logged for COc1ccccc1OCC(O)CN1CCN(CC(=O)Nc2c(C)cccc2C)CC1 (configuration not stated) in this assay:
[A] class 0

[Q] // outcome(item) with item = NC(CO)C(=O)NNCc1ccc(O)c(O)c1O (configuration not stated)
[A] class 0

[Q] For this compound, state the assay outcome: O=c1c(O)c(-c2ccc(O)c(O)c2)oc2cc(O)cc(O)c12
[A] class 0

[Q] How was O=c1c(-c2ccc(O)cc2)coc2cc(O)cc(O)c12 classified in this test?
[A] class 0

[Q] So what was the verdict on Nc1ccn([C@H]2CC[C@@H](CO)O2)c(=O)n1 in this test?
[A] class 0

[Q] Which outcome did this test record for the compound CN(Cc1cnc2nc(N)nc(N)c2n1)c1ccc(C(=O)N[C@@H](CCC(=O)O)C(=O)O)cc1 ?
[A] class 0

[Q] // return assay outcome for CN(C)CCCN1c2ccccc2CCc2ccc(Cl)cc21
[A] class 0

[Q] Identify the outcome logged in this assay for the compound shown: CC(COc1ccccc1)N(CCCl)Cc1ccccc1 (configuration not stated)
[A] class 0

[Q] Look up the recorded call for CN1CCN(C2=Nc3cc(Cl)ccc3Nc3ccccc32)CC1 in this test.
[A] class 0

[Q] Assay outcome for Cc1ccc(C(=O)Nc2ccc(S(=O)(=O)O)c3cc(S(=O)(=O)O)cc(S(=O)(=O)O)c23)cc1NC(=O)c1cccc(NC(=O)Nc2cccc(C(=O)Nc3cc(C(=O)Nc4ccc(S(=O)(=O)O)c5cc(S(=O)(=O)O)cc(S(=O)(=O)O)c45)ccc3C)c2)c1 : what was it?
[A] class 0

[Q] How was CS(=O)(=O)Nc1ccc([N+](=O)[O-])cc1Oc1ccccc1 classified in this test?
[A] class 0

[Q] Each compound tested received a call. Report the one for CC12CC3CC(C)(C1)CC(N)(C3)C2 .
[A] class 0

[Q] Hi, sorry to bother you, what did the test record for CCOC(=O)C(C)(C)Oc1ccc(Cl)cc1 ?
[A] class 0

[Q] Recorded test outcome, item CN(C)CCOC(c1ccccc1)c1ccccc1
[A] class 0
